Test system: K4 kissing-loop RNA reporter
Measurement Protocol: apparent KD of K4 kissing-loop reporter; higher = weaker reporter binding
Assay Conditions: Eterna round: R107; input ligand: tryptophan 2.4 mM
# binarize apparent KD of K4 kissing-loop reporter: threshold 400 nM inclusive, high side yes (1), low side no (0)

| Entry Sequence | Group |
| --- | --- |
| CGCCGAAAGGCGAGCGCUCCCACUCCGGAAGGAGCGCCCGAAAGGGCAGGUAGGUCGCCGGAGUGAUGUUCCGGUGGAGGGCUCG [#2 Exclusion - Arginine A Attempt #30 (Inspired by Omei)] | no (0) |
| AAGGCCAGUGAUGUUGGCUUAACCUUCGAUACCAGAACCGAUCGUUUCCCUUGGCAGCGAACACAAUACCUCACAGCGUUAAGUA [theeternabot_sameState_KL_Theo_A_8] | no (0) |
| UAACUUGCAGUGAUGUUGCAAGAACUGGAUACCAGCAUGGAAACAUGCCCUUGGCAGCCAGAAGGUAUCCUACAUCACAGAUACU [Design2] | no (0) |

Now for another entry.
Identify whether the reported apparent KD of K4 kissing-loop reporter of the following sequence is 400 nM or greater: AAACAUUGGUCUGAUACCAGCUGAUCGGAAACGAUCUUGCUGGAGUGAUGUUCCAGGAAAAGCCCUUGGCAGCAGACCGAUGAAA [MAT - Same State Theophlline B - Mod of Eli - D24]
yes (1)

====

Test system: MS2 coat protein
Measurement Protocol: apparent KD of MS2 coat protein; designed switch direction (-1 OFF switch, 1 ON switch): 1; higher = weaker reporter binding
Assay Conditions: Eterna round: R95; input ligand: FMN 200 uM
Listing: apparent KD of MS2 coat protein of selected sequences
Express the result in nM but write the number alone.

// solved cases for apparent KD of MS2 coat protein follow
| Entry Sequence | apparent KD of MS2 coat protein [nM] |
| --- | --- |
| ACUUGCUUUUUGCUCGUAUAUUGUCCGUUACAUGAGGAUCACCCAUGUGUAUAUUAUGUGUUGUUUUUGAUACGUGU [JR_SHM208A_Sub069] (puzzle: Sensor for hsa-mir-208a) | 36.2 |
| AUUAAACAUGAGGAUCACCCAUGUCAACAAAGUCGAGGAUAUGGGCAAAUAUAAUAAGAACCAGAAGGCGAAUAAU [salish99_ss1_r3_059] (puzzle: Same State 1) | 28 |

I have this sequence here, ACGUGGGUAUCACAGGAUAUACUCAUAACUACAUGAGGAUCACCCAUGUAGCGGUAUUCCGGUGCGUAGAAGGGUGAUGGACCAC [Same State 2 - Mod of Artece] (puzzle: Same State 2) , and I need its recorded apparent KD of MS2 coat protein.
13.3

====

Test system: K4 kissing-loop RNA reporter
Measurement Protocol: apparent KD of K4 kissing-loop reporter; higher = weaker reporter binding
Assay Conditions: Eterna round: R107; input ligand: arginine 13.2 mM
# binarize apparent KD of K4 kissing-loop reporter: threshold 100 nM inclusive, high side True, low side False

Some entries whose results are on file:
| Entry Sequence | Group |
| --- | --- |
| GGAUAGGAAAGAGGAUAUGGGCUAGGCAAGAAUAACUUGUCUAGCAAAUCCAUGAGGAGUGAUGUUCCAGAAGGCUUUCCUAUCG [FmnBX 1 A9+U77] | True |
| UAUAGAAACGUCCUAUCAGUAAAAUGGGAAGGAGCGAGGAAGGACUCAGGUAGGUCGCCCAAUAACCUUAGUGAUGUUAAGGAAA [Version 2] | True |
| AGGCACGAGCAAGGAUAUCGAGUAGAGUGAUGUUCUGCCUGGGUUGGCUCGCAAGGGCCUUCCCAGCGAGAAGGUGCUCGUGCCU [#2 Same State - FMN A Attempt #17 (HarryS)] | True |
| CACUCGGUAUCAGAUACCAGACUAUCGAUACCGAGUGUAUCGGGUAGUGAUGUUACCAUAGUCCCUUGGCAGCUGAUAUUGCAUA [Theo B SS t9b] | False |
| ACUAUCCGUAUAUAUAAGAUAGCUGGAGAUACCAGUUCAAUCUUGAACCCUUGGCAGCUCACCACCAAGUGAUGUUUGGCACGAC [theeternabot_sameState_KL_Theo_A_42] | True |

Now for another entry.
Identify whether the reported apparent KD of K4 kissing-loop reporter of the following sequence is 100 nM or greater: UGAUAGGACAGAAGGAGCGGAAGUGAUGUUUCCAAAAGGAAAGGUCGACAAAGUCGACCCUUCCAGGUAGGUCGCUGUCCUAUCU [ArgBX 8 #Palindromic #SwitchBubble #StaticStem]
False

====

Listing: apparent KD of MS2 coat protein of selected sequences
Test system: MS2 coat protein
Measurement Protocol: apparent KD of MS2 coat protein; designed switch direction (-1 OFF switch, 1 ON switch): -1; higher = weaker reporter binding
Assay Conditions: Eterna round: R95; input ligand: FMN 200 uM
Express the result in µM but write the number alone.

I have this sequence here, CUGAGCAGACGGAGAUCCAACAUGAGGAUCACCCAUGUCUCAUAAGCUUUUUGCUCAUCUUAUUGUACCUUGGUGCU [JL ViennaUCT Edcesobi mod 3] (puzzle: Sensor v3, turn-off variant 1) , and I need its recorded apparent KD of MS2 coat protein.
0.275

Same question for UAAGUGUGAGGAUAUGGUAAAGAUAGAAUGAUGAAAGAACUCCAGAAGGCACAUGAGGAUCACCCAUGUAGAUG [Mat - Exclusion 4 - Mod of JL - D24] (puzzle: Exclusion 4) please.
0.0602

Same question for AAAAGAACAGGAUAUUCGGGAAAUAACAUGAGGAUCACCCAUGUUAACGCGGGUGAGAACGAAGAAGGGUUCUAAA [Atusceon] (puzzle: Exclusion 5) please.
0.114

====

Listing: apparent KD of K4 kissing-loop reporter of selected sequences
System: K4 kissing-loop RNA reporter;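 note: bound reporter read as fluorescence of individual clusters on recovered sequencing chips by microscopy, with normalized cluster intensities fitted with a binding model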
Measurement Protocol: apparent KD of K4 kissing-loop reporter; higher = weaker reporter binding
Assay Conditions: Eterna round: R107; input ligand: tryptophan 2.4 mM
Please answer in the form of a number followed by its unit of measurement.

// solved cases for apparent KD of K4 kissing-loop reporter follow
| Entry Sequence | Property Label | Observed |
| --- | --- | --- |
| GCGCGCGGCGGAGGAUAUAGCAGGUGAUCCAAGAAAGUGAGUGAUGUUUAUGGAGAUGAUGAUAUGUUAGAAGGCCGCCGCGCGC [abcdefghijklmnopqrstu] | apparent KD of K4 kissing-loop reporter | 474 nM |
| AUGAGGAGCAGUGAUCCUACUCCAUGGGAAGGAGCGUAGGAUACUACAGGUAGGUCGCCCAGUGAUGUUGGGCGCGUGCUCUUGG [Isatquesra] | apparent KD of K4 kissing-loop reporter | 150 nM |
| CAUACGCAUGGAGGAUAUGAGAUUUCUCAUAUUAUUUAAUAUUCUCAGUGAUGUUGGGAUUUAAACUCAGAAGGCCAUGUGUAUG [Ex FMN B 7] | apparent KD of K4 kissing-loop reporter | 169 nM |
| GGAUAGGAUAGAGGAUAUGGUUUAUGCAGGAAUAACUUAUCGUGUAAAUCCAUAGGGAGUGAUGUUCCAGAAGGCUGUCCUAUCG [MatMod 13 - Jieux - Exclusion - FMN B] | apparent KD of K4 kissing-loop reporter | 170 nM |
| GGCUUACUAGUGAUGUUAGUAUUUUCUGAAGGAGCGCGUGAAAACGCAGGUAGGUCGCAGAACCUUGCCAACUAUUUUAGUUGCC [Ex Arginine A K4 28] | apparent KD of K4 kissing-loop reporter | 104 nM |

Continue with the next sequence.
I have this sequence here, GAGAGCCCUGUAGGAUAUGAGUCUAGUGAUGUUAGGCGGUCCAUGCGCGUGGCGCGUUAUGCCCUUUUAGAAGGACAGGGCUCUC [#2 Exclusion - FMN B Attempt #20 (HarryS)] , and I need its recorded apparent KD of K4 kissing-loop reporter.
80 nM

====

System: MS2 coat protein
Measurement Protocol: apparent KD of MS2 coat protein; higher = weaker reporter binding
Assay Conditions: Eterna round: R107; input ligand: theophylline 20 uM
Property Label: apparent KD of MS2 coat protein (nM)
Express the result in nM but write the number alone.

| Entry Sequence | Assay System | apparent KD of MS2 coat protein [nM] |
| --- | --- | --- |
| ACGUUUUAGUCGGCCGCCACUGUUUUCAUGUUCAACAUGAGGAUCACCCAUGUACCUUUUUUUAUCAGGACCGGGACGUAAUAGA [JR_SSTryptoB_Sub004] | MS2 coat protein | 102 |
| GUAGGUCAGUGAUCCCGACCUACACUGGAAGGAGCGAGCGAAAGCUCAGGUAGGUCGCCAGAAACAUGAGGAUCACCCAUGUAAU [(A)''-(M)'-(A)'-(Arg1)-(Arg2)-(M1)-(M2)_Design1] | MS2 coat protein | 153 |

Continue with the next sequence.
Request - read-out apparent KD of MS2 coat protein | tested on MS2 coat protein | sequence UCGCCCAGGAUGGAAUCCUGGGAUAUGGAAGGAGCGCUGAUGCCAGCAGGUAGGUCGCCAACGGACAUGAGGAUCACCCAUGUAC [Same State - Arginine A (Freestyle 9)]
28.8
